# target.of.assay: vanilloid receptor (Rattus norvegicus, UniProt O35433)
# Construct: DRG nerve cells from the primary culture of 2–3 days were equilibrated; endogenous in cells
# Sequence (O35433 whole entry): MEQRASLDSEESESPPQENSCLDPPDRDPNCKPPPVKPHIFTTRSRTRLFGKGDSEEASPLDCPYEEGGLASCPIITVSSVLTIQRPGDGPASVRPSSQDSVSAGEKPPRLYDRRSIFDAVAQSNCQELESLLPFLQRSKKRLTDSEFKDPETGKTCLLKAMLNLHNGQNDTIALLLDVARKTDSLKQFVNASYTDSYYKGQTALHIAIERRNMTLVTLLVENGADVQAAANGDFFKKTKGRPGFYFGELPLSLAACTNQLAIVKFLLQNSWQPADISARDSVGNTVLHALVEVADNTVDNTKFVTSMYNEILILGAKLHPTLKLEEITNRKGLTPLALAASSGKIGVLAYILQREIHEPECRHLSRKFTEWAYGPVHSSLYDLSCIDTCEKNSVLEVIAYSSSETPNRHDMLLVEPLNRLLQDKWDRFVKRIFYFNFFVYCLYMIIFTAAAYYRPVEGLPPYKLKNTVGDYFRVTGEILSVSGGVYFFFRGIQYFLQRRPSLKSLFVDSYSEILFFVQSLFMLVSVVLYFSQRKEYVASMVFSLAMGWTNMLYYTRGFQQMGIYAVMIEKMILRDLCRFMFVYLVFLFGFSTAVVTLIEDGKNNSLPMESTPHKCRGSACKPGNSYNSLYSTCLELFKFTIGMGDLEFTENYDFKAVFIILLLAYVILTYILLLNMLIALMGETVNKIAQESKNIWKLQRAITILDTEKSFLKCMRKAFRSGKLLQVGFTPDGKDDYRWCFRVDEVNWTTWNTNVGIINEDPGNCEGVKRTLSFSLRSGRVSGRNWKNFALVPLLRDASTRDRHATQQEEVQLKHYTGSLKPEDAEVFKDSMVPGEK
# method.summary: 45Ca influx test (calcium uptake) in cultured DRG neurons, capsaicin-stimulated
# test.parameters: neonatal SD rat DRG neurons; capsaicin 0.5 μM; 45Ca 10 μCi/ml; 10 min at room temperature; NR: no response
pIC50: −log10 of the molar value.
measured.parameter: pIC50

>>> result("CC(C)(C)C(=O)OCC(C/N=C(\\S)NCc1ccc(NS(C)(=O)=O)cc1)Cc1ccc(C(C)(C)C)cc1 (centres unmarked)")
5.60
>>> result("COc1cc(CNC(=S)NCC(COC(=O)c2ccccc2)Cc2ccc(C)c(C)c2)ccc1NS(C)(=O)=O (centres unmarked)")
4.42
>>> result("Cc1ccc(CCC(CNC(=S)NCc2ccc(NS(C)(=O)=O)cc2)COC(=O)C(C)(C)C)cc1C (centres unmarked)")
5.96
>>> result("CC(C)(C)C(=O)OCC(CCc1ccc(C(C)(C)C)cc1)CNC(=S)NCc1ccc(NS(C)(=O)=O)cc1 (centres unmarked)")
5.74
>>> result("Cc1ccc(CC(CN/C(S)=N/Cc2ccc(NS(C)(=O)=O)cc2)COC(=O)c2ccccc2)cc1C (centres unmarked)")
4.89
>>> result("COc1cc(CNC(=S)NCC(COC(=O)C(C)(C)C)Cc2ccc(C)c(C)c2)ccc1NS(C)(=O)=O (centres unmarked)")
6.17

This collection of values is drawn from patent US7067553B2.
